Give measured abundance fitness for each item. Keep answers brief.
B1: Triacylglycerol hydrolase DDHD2, residues 389 to 447; numbered along this chain, O94830 (parent)
chain: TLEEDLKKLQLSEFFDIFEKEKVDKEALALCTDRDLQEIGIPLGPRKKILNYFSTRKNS

Variants of: B1
Test: abundance fitness (aPCA) (normalised: wild type 0, dead -1); higher = more abundant; growth selection in yeast, the domain comes from the species named
Conditions: Homo sapiens

Check out these entries, answers already filled in.
Input sequence	Reported metric	Result
TLEEDLKKLQLSEFFDIFEKEKVDKEALALCTDRDLQEIGIPLGPRKKINNYFSTRKNS [L50N]	abundance fitness	-0.483
TLEEDLKKLQLSEFFDIVEKEKVDKEALALCTDRDLQEIGIPLGPRKKILNYFSTRKNS [F18V]	abundance fitness	-0.45
TLEEDLKKLQLSEFFDIFEKEKVDKEALALCTDRDLQEIGIPLGPRKKILSYFSTRKNS [N51S]	abundance fitness	0.14
TLEEDLKKLQLSEFFDIFEKEKVDKEALALCTDRDLQEIGIPLGPRKKTLNYFSTRKNS [I49T]	abundance fitness	-0.301
TLEEDLKKLQLSEFFDIFEKEKVDKEALALCTDRDLQEIGIPLGPRKKILTYFSTRKNS [N51T]	abundance fitness	0.119
TLEEDLKKLQLSEFFDIFEKEKVDKEALALCTDTDLQEIGIPLGPRKKILNYFSTRKNS [R34T]	abundance fitness	0.076
TLEEDLKKLQLSEFFDIFEKEKVDKEALALCTDRDLQEIGIPLGPRKKILNYFTTRKNS [S54T]	abundance fitness	-0.097
TLEEDLKKLQLSEFFDIFEKEKVDKEALALCTARDLQEIGIPLGPRKKILNYFSTRKNS [D33A]	abundance fitness	-0.107

Give me abundance fitness for each of these variants, listed below.
1. TLEEDLKKLQLSEFFDIFEKEKVDKEALALCTIRDLQEIGIPLGPRKKILNYFSTRKNS [D33I]
2. TLETDLKKLQLSEFFDIFEKEKVDKEALALCTDRDLQEIGIPLGPRKKILNYFSTRKNS [E4T]
3. TLEEDLKKLQLSEFFDIREKEKVDKEALALCTDRDLQEIGIPLGPRKKILNYFSTRKNS [F18R]
4. TLEEDLKKLQLSEFFDIFEKEKVDKHALALCTDRDLQEIGIPLGPRKKILNYFSTRKNS [E26H]
5. TLEEDLKKLQLSEFFDIFEKEKVDKEALAKCTDRDLQEIGIPLGPRKKILNYFSTRKNS [L30K]
6. TLEEDLKKLQLSEFFDIFEKEKVDKEALDLCTDRDLQEIGIPLGPRKKILNYFSTRKNS [A29D]

A:
1. -0.821
2. -0.589
3. -0.685
4. 0.153
5. 0.642
6. -0.264
